SYSTEM: TRIP8b-HCN1c40 (Homo sapiens (Human))
METHOD_NOTES: TRIP8b-HCN1c40 AlphaScreen assay
Type: binding
CONDITION_INFO: read-out: TRIP8b-HCN1c40 Alphascreen IC50
Protocol: AlphaScreen Assay. 20 nM ofGST-tagged HCNlc40 protein (corresponding to the C terminal 40 amino acids of HCN1) was incubated with 200 nM of His-tagged TRIP8b(241-602) and varying concentrations of the test compound as described in our prior report (Han et al., 2015). […] AlphaScreen signal was quantified using a PerkinElmer (Waltham, MA) EnSpire multimode plate reader.
pIC50: −log10 of the molar value.
pIC50 below 5 gives F; pIC50 at or above it gives T.

* CN1CCN(Cc2cc(OC(F)(F)F)ccc2OCC(=O)NCc2ccc(Cl)cc2)CC1 [NUCC-0201228] | F
* CN1CCN(Cc2cc(-c3ccc(Cl)c(Cl)c3)ccc2OCC(=O)NC2CCc3ccccc32)CC1 (centres unmarked) [NUCC-0201988] | T
* CN1CCN(Cc2cc(-c3ccc(F)cc3)ccc2OCC(=O)NCc2ccc(C(F)(F)F)cc2)CC1 [NUCC-0201103] | F
* CC(Oc1ccc(-c2ccc([N+](=O)[O-])cc2)cc1CN1CCN(C)CC1)C(=O)NCc1ccc(Cl)cc1 (centres unmarked) [NUCC-0202034] | T
* Cc1ccc(NC(=O)COc2ccc(-c3ccc(Cl)c(Cl)c3)cc2CN2CCN(C)CC2)cc1 [NUCC-0202018] | T
* Cc1cccc(-c2ccc(OCC(=O)Nc3ccc(Cl)c(Cl)c3)c(CN3CC[C@H](N)C3)c2)c1 [NUCC-0201621] | T
* CN1CCN(Cc2cc(-c3ccc(Cl)c(Cl)c3)ccc2OCC(=O)N2CCc3cc(Cl)c(Cl)cc32)CC1 [NUCC-0201991] | T

* * *

SYSTEM: TRIP8b-HCN1c40 (Homo sapiens (Human))
METHOD_NOTES: TRIP8b-HCN1c40 AlphaScreen assay
Assay type: binding
CONDITION_INFO: activity ranges; read-out: TRIP8b-HCN1c40 Alphascreen IC50 activity
pIC50: −log10 of the molar value.
// pIC50 lookup, one value per entry
REPORTED_METRIC: pIC50

- Cc1ccc(-c2ccc(OC(C)C(=O)N[C@H](C)c3ccc(C)cc3)c(CN3CCN(C)CC3)c2)cc1 (stereo partly shown) [NUCC-0202048]: 5.70 to 6.00
- CN1CCN(Cc2cc(-c3ccc(Cl)c(Cl)c3)ccc2OCC(=O)Nc2ccc(Cl)c(Cl)c2)CC1 [NUCC-0202002]: > 6.00
- Cc1cccc(-c2ccc(OCC(=O)Nc3cc(O)c(O)c(O)c3)c(CN3CC[C@H](N)C3)c2)c1 [NUCC-0201628]: 5.00 to 5.30
- Cc1ccc(-c2ccc(OCC(=O)Nc3ccc4c(c3)OCO4)c(CN3CCCN(C)CC3)c2)cc1 [NUCC-0201600]: 5.00 to 5.30
- CN1CCN(Cc2cc(-c3ccc(CO)cc3)ccc2OCC(=O)Nc2ccc(Cl)c(Cl)c2)CC1 [NUCC-0202024]: 5.30 to 5.70
- Cc1cccc(-c2ccc(OCC(=O)Nc3ccc(Cl)c(Cl)c3)c(CN3CCN(C)CC3)c2)c1 [NUCC-0202000]: > 6.00
- Cc1ccc(-c2ccc(OCC(=O)NCc3ccc(Cl)cc3)c(CN3CCOCC3)c2)cc1 [NUCC-0201604]: 5.00 to 5.30

* * *

SYSTEM: UniProt Q8IYB4
METHOD_NOTES: TRIP8b-HCN1c40 AlphaScreen assay
Format: binding
CONDITION_INFO: read-out: TRIP8b-HCN1c40 Alphascreen IC50
// IC50 lookup, one value per entry
REPORTED_METRIC: IC50

• CN1CCN(Cc2cc(-c3ccc(Cl)cc3Cl)ccc2OCC(=O)NCc2ccc(Cl)cc2)CC1 = < 740 nM
• CN1CCN(Cc2cc(-c3cccc(Cl)c3)ccc2OCC(=O)Nc2ccc(Cl)c(Cl)c2)CC1 = < 740 nM
• CN1CCN(Cc2cc(-c3ccc(Cl)cc3Cl)ccc2OCC(=O)NCc2ccc(Cl)c(Cl)c2)CC1 = < 740 nM

* * *

SYSTEM: TRIP8b-HCN1c40 (Homo sapiens (Human), UniProt Q8IYB4)
Sequence (Q8IYB4 265-626): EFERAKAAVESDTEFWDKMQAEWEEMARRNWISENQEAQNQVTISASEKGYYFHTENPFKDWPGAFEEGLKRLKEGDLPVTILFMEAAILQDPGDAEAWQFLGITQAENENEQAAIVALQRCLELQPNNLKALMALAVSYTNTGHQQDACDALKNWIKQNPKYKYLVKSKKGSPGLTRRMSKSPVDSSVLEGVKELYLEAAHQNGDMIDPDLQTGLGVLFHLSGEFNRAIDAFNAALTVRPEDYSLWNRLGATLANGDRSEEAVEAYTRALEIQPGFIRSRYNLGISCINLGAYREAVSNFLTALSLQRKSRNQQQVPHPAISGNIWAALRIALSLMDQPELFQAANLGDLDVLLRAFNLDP
METHOD_NOTES: TRIP8b-HCN1c40 AlphaScreen assay
Format: binding
CONDITION_INFO: read-out: TRIP8b-HCN1c40 Alphascreen IC50
pIC50: −log10 of the molar value.
// pIC50 lookup, one value per entry
REPORTED_METRIC: pIC50

- CN1CCN(Cc2cc(-c3ccc(Cl)c(Cl)c3)ccc2COC(=O)Nc2ccc3c(c2)OCO3)CC1 [NUCC-0202017]: > 6.13
- CN1CCN(Cc2cc(-c3ccc(Cl)cc3Cl)ccc2OCC(=O)Nc2ccc(Cl)c(Cl)c2)CC1 [NUCC-0202001]: > 6.13
- CC(Oc1ccc(-c2ccc(Cl)cc2Cl)cc1CN1CCN(C)CC1)C(=O)NCc1ccc(Cl)cc1 (stereo not shown) [NUCC-0202026]: 6.04
- Cc1ccc([C@@H](C)NC(=O)C(C)Oc2ccc(-c3ccc(Cl)c(Cl)c3)cc2CN2CCN(C)CC2)cc1 (stereo partly shown) [NUCC-0202047]: > 6.13

* * *

SYSTEM: TRIP8b-HCN1c40 (Homo sapiens (Human), UniProt Q8IYB4)
METHOD_NOTES: TRIP8b-HCN1c40 AlphaScreen assay
Type: binding
CONDITION_INFO: activity ranges; read-out: TRIP8b-HCN1c40 Alphascreen IC50 activity
// IC50 lookup, one value per entry
REPORTED_METRIC: IC50

* Cc1ccc(-c2ccc(OCC(=O)N[C@H](C)c3ccccc3)c(CN3CCOCC3)c2)cc1 [NUCC-0201606] | 20 to 40 µM
* CC(C)(C)c1ccc(-c2ccc(OCC(=O)NCc3ccc(Cl)cc3)c(CN3CCNCC3)c2)cc1 [NUCC-0201615] | 5 to 10 µM
* Cc1ccc([C@@H](C)NC(=O)C(C)Oc2ccc(-c3ccc(Cl)cc3)cc2CN2CCN(C)CC2)cc1 (stereo partly shown) [NUCC-0202046] | < 1 µM
* CN1CCN(Cc2cc(-c3ccc(Cl)c(Cl)c3)ccc2OCC(=O)NCc2ccc([N+](=O)[O-])cc2)CC1 [NUCC-0201985] | 2 to 5 µM
* Cc1ccc(C(C)NC(=O)C(C)Oc2ccc(-c3cc(Cl)cc(-c4cc(Cl)cc(Cl)c4)c3)cc2CN2CCN(C)CC2)cc1 (stereo not shown) [NUCC-0202050] | < 1 µM
* CN1CCN(Cc2cc(-c3ccc(Cl)c(Cl)c3)ccc2OCC(=O)N2CCc3ccccc3C2)CC1 [NUCC-0201990] | < 1 µM
* CC(Oc1ccc(-c2ccc(Cl)cc2Cl)cc1CN1CCN(C)CC1)C(=O)NCc1ccc(Cl)cc1 (stereo not shown) [NUCC-0202026] | < 1 µM

* * *

SYSTEM: TRIP8b-HCN1c40 (Homo sapiens (Human), UniProt Q8IYB4)
METHOD_NOTES: TRIP8b-HCN1c40 AlphaScreen assay
Format: binding
CONDITION_INFO: read-out: TRIP8b-HCN1c40 Alphascreen IC50
Define the label as condition met when IC50 is strictly less than 6 µM and as condition not met in all remaining cases.

- Cc1ccc(-c2ccc(CN3CCN(C)CC3)c(OCC(=O)NCc3ccc(Cl)cc3)c2)cc1: condition met
- CC(Oc1ccc(-c2ccc(F)cc2)cc1CN1CCN(C)CC1)C(=O)NCc1ccc(Cl)cc1 (stereo not drawn): condition met
- CCN(CCO)Cc1cc(-c2ccc(C)cc2)ccc1OCC(=O)NCc1ccc(O)cc1: condition not met
- CC(Oc1ccc(-c2ccc(C(F)(F)F)cc2)cc1CN1CCN(C)CC1)C(=O)NCc1ccc(Cl)cc1 (stereo not drawn): condition met
- CC(C)(C)c1ccc(-c2ccc(OCC(=O)NCc3ccc(Cl)cc3)c(CN3CCNCC3)c2)cc1: condition not met
- CN1CCN(Cc2cc(-c3ccc(F)cc3)ccc2OCC(=O)NC2CC2)CC1: condition not met
- CN1CCN(Cc2cc(-c3cccnc3)ccc2OCC(=O)Nc2ccc(Cl)c(Cl)c2)CC1: condition met
- CN1CCN(Cc2cc(-c3ccccc3Cl)ccc2OCC(=O)Nc2ccc(Cl)c(Cl)c2)CC1: condition met
- CN1CCN(Cc2cc(-c3ccc4c(c3)OCCO4)ccc2OCC(=O)Nc2ccc(Cl)c(Cl)c2)CC1: condition met
- COc1ncc(-c2ccc(OCC(=O)NCc3ccc(Cl)cc3)c(CN3CCN(C)CC3)c2)c(OC)n1: condition not met
- Cc1ccc(-c2ccc(OCC(=O)NCc3ccc(S(N)(=O)=O)cc3)c(CN3CCCN(C)CC3)c2)cc1: condition not met
- CN1CCN(Cc2cc(-c3ccc(Cl)c(Cl)c3)ccc2OCC(=O)NCCc2ccc(C#N)cc2)CC1: condition met
- CN1CCN(Cc2cc(-c3ccc(Cl)c(Cl)c3)ccc2OCC(=O)NCCc2ccccc2)CC1: condition met
- CN1CCN(Cc2cc(-c3ccncc3)ccc2OCC(=O)Nc2ccc(Cl)c(Cl)c2)CC1: condition met
- Cc1ccc(-c2ccc(OCC(=O)NCc3ccccc3)c(CN3CCCN(C)CC3)c2)cc1: condition not met
- CN1CCN(Cc2cc(-c3ccc(Cl)c(Cl)c3)ccc2OCCNCc2ccc(Cl)cc2)CC1: condition met
- CN1CCN(Cc2ccc(-c3ccc(Cl)c(Cl)c3)cc2OCC(=O)NCc2ccc(Cl)cc2)CC1: condition met
- CSc1ccc(-c2ccc(OCC(=O)NCc3ccc(Cl)cc3)c(CN3CCN(C)CC3)c2)cc1: condition met
- CN1CCN(Cc2cc(-c3ccc(Cl)cc3)ccc2OCCNS(=O)(=O)c2ccc(Cl)cc2)CC1: condition met
- CN1CCN(Cc2ccc(-c3ccc(F)cc3)cc2OCC(=O)NCc2ccc(Cl)cc2)CC1: condition met
- CN1CCN(Cc2cc(-c3ccc(Cl)c(Cl)c3)ccc2OCC(=O)NC2Cc3ccc(Cl)cc3C2)CC1 (stereo not drawn): condition met

// provenance: patent US20230391714A1
